Values compiled from ChEMBL document CHEMBL4334527.

- target.system: Nonstructural protein 3 (Zika virus) (UniProt A0A024AXB9)
- Sequence (A0A024AXB9 as listed by the source): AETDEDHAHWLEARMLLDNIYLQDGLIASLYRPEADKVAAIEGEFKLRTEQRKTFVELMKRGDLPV
- procedure.details: Inhibition of N-terminal hexa-histidine tagged Zika virus NS2B/NS3 protease expressed in Escherichia coli BL21-Gold (DE3) at 20 uM using fluorogenic AMC-substituted peptide boc-GRR-7-amino-4-methylcoumarin measured every 30 secs for 10 mins by fluorometric assay relative to control
Calls of active or inactive are those of the source. No cut-off for these calls is given here.
value.kind: inhibition

Known inhibition results, listed for orientation:
O=C(Nc1nc2ccc([N+](=O)[O-])cc2s1)[C@@H]1CCCN1C(=O)c1ccccc1 ... 44%
COc1cc2nc(NC(=O)C3CCCN3S(=O)(=O)c3ccc([N+](=O)[O-])cc3)sc2cc1OC (stereo not given) ... inactive
O=C(Nc1nc2cc(O)c(O)cc2s1)C1CCCCC1 ... 36%
Cc1ccc(S(=O)(=O)N2CCC[C@@H]2C(=O)Nc2nc3ccc([N+](=O)[O-])cc3s2)cc1 ... 31%

# input for lookup
Ask: Supply recorded inhibition for COc1cc2nc(NC(=O)C3CCCN3S(=O)(=O)c3ccc(C)cc3)sc2cc1OC (stereo not given) here.
Result: inactive

* * *

- target.system: Nonstructural protein 3 (Zika virus) (UniProt A0A024AXB9)
- procedure.details: Inhibition of N-terminal hexa-histidine tagged Zika virus NS2B/NS3 protease expressed in Escherichia coli BL21-Gold (DE3) at 20 uM using fluorogenic AMC-substituted peptide boc-GRR-7-amino-4-methylcoumarin measured every 30 secs for 10 mins by fluorometric assay relative to control
Calls of active or inactive are those of the source. The rule behind the calls is not given here.
value.kind: inhibition

COc1ccc2cc(Oc3ccccc3C(=O)Nc3nc4cc(OC)c(OC)cc4s3)ccc2c1 ... inactive
COc1cc2nc(NC(=O)C3CCCN3S(=O)(=O)c3ccc(Cl)cc3)sc2cc1OC (stereo not drawn) ... inactive
COc1ccc(S(=O)(=O)N2CCC[C@@H]2C(=O)Nc2nc3cc(OC)c(OC)cc3s2)cc1 ... inactive

* * *

Exercise: state measured inhibition for each of the compounds provided.
- System: dengue virus type 2
- procedure.details: Inhibition of N-terminal hexa-histidine tagged Dengue virus 2 NS2B/NS3 protease I30A/L31A mutant expressed in Escherichia coli BL21-Gold (DE3) at 20 uM using fluorogenic AMC-substituted peptide boc-GRR-7-amino-4-methylcoumarin measured every 30 secs for 10 mins by fluorometric assay relative to control

Ask: Please report the measured inhibition for O=C(Nc1nc2cc(O)c(O)cc2s1)C1CCCCC1 tested on dengue virus type 2.
Result: 20%

Ask: Please report the measured inhibition for Cc1ccc(S(=O)(=O)N2CCC[C@@H]2C(=O)Nc2nc3ccc([N+](=O)[O-])cc3s2)cc1 tested on dengue virus type 2.
Result: 18%

Ask: Please report the measured inhibition for O=C(Nc1nc2cc(O)c(O)cc2s1)[C@@H]1CCCN1S(=O)(=O)c1cccc([N+](=O)[O-])c1 tested on dengue virus type 2.
Result: 25%

Ask: Please report the measured inhibition for CC(=O)Nc1ccc2cc(S(=O)(=O)N3CCC[C@H]3C(=O)Nc3nc4cc(O)c(O)cc4s3)ccc2c1 tested on dengue virus type 2.
Result: 29%

* * *

- procedure.details: Inhibition of N-terminal hexa-histidine tagged Dengue virus 2 NS2B/NS3 protease I30A/L31A/T120C mutant expressed in Escherichia coli BL21-Gold (DE3) in presence of N-ethylmaleimide using fluorogenic AMC-substituted peptide boc-GRR-7-amino-4-methylcoumarin measured every 30 secs for 10 mins by fluorometric assay
- Parameters: species or system dengue virus type 2
value.kind: pIC50
Remember the convention: pIC50 equals -log10 of concentration in molar.

Ask: Supply recorded pIC50 for O=C(Nc1nc2cc(O)c(O)cc2s1)c1ccccc1Oc1ccc2cc(O)ccc2c1 here.
Result: 5.07
